- Tested on: PPARg:RXRa IVT, anti-PPARg (NR concentration 270 nM, RXRa partner concentration 90 nM)
- Assay protocol: PBM binding z-score (relative to random genomic background probes); higher = stronger binding; sequences stand for … in GC…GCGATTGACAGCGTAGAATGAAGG
PBM binding z-score below 2 gives 0.0; PBM binding z-score at or above it gives 1.0.

| Seq string | Discrete label |
| --- | --- |
| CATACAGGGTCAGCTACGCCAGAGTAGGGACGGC | 1.0 |
| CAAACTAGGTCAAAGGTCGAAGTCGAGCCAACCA | 1.0 |
| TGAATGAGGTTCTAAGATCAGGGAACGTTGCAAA | 0.0 |
| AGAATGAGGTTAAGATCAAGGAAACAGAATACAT | 1.0 |
| CGAACTAGGTCATCCAAGACAGTGAATACATTGA | 1.0 |
| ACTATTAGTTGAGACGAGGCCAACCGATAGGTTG | 0.0 |
| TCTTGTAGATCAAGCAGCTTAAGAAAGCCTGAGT | 0.0 |
| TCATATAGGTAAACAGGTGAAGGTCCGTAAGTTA | 1.0 |
| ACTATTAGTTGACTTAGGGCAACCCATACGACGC | 0.0 |
| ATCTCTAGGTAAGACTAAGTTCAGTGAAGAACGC | 0.0 |
| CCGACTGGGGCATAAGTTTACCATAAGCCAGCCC | 1.0 |
| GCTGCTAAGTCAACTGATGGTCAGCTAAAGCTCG | 0.0 |
| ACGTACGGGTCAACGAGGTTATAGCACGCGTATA | 1.0 |

###

PBM binding z-score by entry:
- Test system: RARg homodimer (NR concentration 270 nM)
- Assay protocol: PBM binding z-score (relative to random genomic background probes); higher = stronger binding; sequences stand for … in GC…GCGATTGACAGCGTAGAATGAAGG
Measure name: PBM binding z-score

| Seq string | Measure name | Recorded number |
| --- | --- | --- |
| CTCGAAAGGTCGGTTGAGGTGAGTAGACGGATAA | PBM binding z-score | 2.67 |
| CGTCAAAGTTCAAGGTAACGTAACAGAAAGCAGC | PBM binding z-score | 5.88 |
| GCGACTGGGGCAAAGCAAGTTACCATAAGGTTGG | PBM binding z-score | 0.244 |
| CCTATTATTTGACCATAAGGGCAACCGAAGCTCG | PBM binding z-score | 1.21 |
| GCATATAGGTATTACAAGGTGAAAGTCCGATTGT | PBM binding z-score | 0.464 |
| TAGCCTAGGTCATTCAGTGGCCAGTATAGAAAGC | PBM binding z-score | 3.96 |
| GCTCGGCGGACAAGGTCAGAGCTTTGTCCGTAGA | PBM binding z-score | 2.54 |
| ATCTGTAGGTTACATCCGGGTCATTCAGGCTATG | PBM binding z-score | 2.18 |
| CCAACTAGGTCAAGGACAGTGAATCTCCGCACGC | PBM binding z-score | 4.42 |
| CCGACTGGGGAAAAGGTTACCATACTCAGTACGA | PBM binding z-score | 0.901 |
| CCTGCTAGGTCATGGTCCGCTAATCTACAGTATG | PBM binding z-score | 4.05 |
| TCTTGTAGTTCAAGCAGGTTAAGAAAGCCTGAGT | PBM binding z-score | 1.65 |
| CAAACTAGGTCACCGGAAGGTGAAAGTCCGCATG | PBM binding z-score | 5.87 |

###

- Tested on: RXRa homodimer (NR concentration 180 nM)
- Assay protocol: PBM binding z-score (relative to random genomic background probes); higher = stronger binding; sequences stand for … in GC…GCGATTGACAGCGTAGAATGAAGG
Kind request: treat 0.4 as inclusive, so PBM binding z-score at 0.4 or higher is true, anything lower is false.

| Seq string | Test target | Discrete label |
| --- | --- | --- |
| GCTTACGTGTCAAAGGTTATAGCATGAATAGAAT | RXRa homodimer (NR concentration 180 nM) | true |
| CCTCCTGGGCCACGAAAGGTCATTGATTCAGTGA | RXRa homodimer (NR concentration 180 nM) | true |
| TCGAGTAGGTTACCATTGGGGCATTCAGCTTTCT | RXRa homodimer (NR concentration 180 nM) | false |
| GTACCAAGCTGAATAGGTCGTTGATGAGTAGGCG | RXRa homodimer (NR concentration 180 nM) | false |
| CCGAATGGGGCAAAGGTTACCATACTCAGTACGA | RXRa homodimer (NR concentration 180 nM) | true |
| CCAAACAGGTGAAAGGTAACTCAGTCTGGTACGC | RXRa homodimer (NR concentration 180 nM) | true |
| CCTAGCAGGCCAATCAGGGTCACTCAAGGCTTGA | RXRa homodimer (NR concentration 180 nM) | true |
| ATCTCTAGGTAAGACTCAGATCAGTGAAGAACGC | RXRa homodimer (NR concentration 180 nM) | false |
| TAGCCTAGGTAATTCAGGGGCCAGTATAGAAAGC | RXRa homodimer (NR concentration 180 nM) | false |
| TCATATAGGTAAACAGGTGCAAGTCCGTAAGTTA | RXRa homodimer (NR concentration 180 nM) | true |

###

The reader will find reported PBM binding z-score values listed item by item below.
- Test system: PXR homodimer (NR concentration 270 nM)
- Assay protocol: PBM binding z-score (relative to random genomic background probes); higher = stronger binding; sequences stand for … in GC…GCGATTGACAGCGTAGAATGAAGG

| Seq string | PBM binding z-score |
| --- | --- |
| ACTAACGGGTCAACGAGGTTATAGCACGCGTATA | 2.39 |
| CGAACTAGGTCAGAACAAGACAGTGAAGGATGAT | 0.276 |
| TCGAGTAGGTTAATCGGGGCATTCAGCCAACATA | -0.134 |
| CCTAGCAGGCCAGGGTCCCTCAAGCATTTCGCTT | -0.449 |
| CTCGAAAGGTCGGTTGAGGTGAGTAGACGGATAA | 0.241 |
| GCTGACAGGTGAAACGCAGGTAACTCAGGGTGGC | -0.797 |
| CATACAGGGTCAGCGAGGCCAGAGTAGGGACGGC | 0.862 |
| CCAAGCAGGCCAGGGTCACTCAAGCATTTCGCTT | -0.14 |
| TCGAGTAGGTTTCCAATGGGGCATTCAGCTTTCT | -1.03 |
| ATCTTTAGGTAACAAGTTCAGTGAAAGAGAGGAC | 1.87 |
| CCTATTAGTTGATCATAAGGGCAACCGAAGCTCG | 0.836 |
| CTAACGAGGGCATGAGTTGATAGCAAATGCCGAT | 0.123 |
| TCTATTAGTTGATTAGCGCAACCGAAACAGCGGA | 0.358 |
| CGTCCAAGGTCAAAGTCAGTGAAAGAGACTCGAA | 0.349 |
| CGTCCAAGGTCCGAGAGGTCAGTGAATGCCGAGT | 1.56 |
| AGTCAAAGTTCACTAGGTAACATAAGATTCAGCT | 3.16 |
| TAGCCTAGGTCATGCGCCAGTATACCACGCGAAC | -0.142 |
| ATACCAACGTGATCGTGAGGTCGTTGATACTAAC | 0.835 |
| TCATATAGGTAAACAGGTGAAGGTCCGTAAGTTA | 0.241 |
| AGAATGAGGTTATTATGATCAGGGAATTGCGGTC | 0.371 |
| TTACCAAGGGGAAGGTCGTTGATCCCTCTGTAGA | -0.0192 |
| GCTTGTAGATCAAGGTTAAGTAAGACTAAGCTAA | -0.237 |
| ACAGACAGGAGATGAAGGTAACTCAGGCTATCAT | 0.841 |
| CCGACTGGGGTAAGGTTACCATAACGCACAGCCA | -0.126 |
| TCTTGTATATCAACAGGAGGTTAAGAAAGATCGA | 0.265 |
| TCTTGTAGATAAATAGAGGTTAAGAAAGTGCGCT | 0.529 |
| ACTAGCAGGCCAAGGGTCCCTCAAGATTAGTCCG | -0.427 |
| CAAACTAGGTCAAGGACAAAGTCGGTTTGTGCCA | 0.0226 |
| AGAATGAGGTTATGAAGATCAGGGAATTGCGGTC | 0.111 |
| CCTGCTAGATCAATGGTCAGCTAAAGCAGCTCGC | -0.691 |
| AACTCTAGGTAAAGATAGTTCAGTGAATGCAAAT | 0.513 |
| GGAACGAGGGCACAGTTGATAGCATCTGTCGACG | -0.335 |
| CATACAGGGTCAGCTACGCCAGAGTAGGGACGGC | -0.0173 |
| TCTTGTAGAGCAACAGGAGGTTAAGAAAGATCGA | -0.46 |
| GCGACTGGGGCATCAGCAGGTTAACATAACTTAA | -0.239 |
| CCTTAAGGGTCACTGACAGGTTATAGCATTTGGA | 0.0863 |
